Target: Serine/threonine-protein kinase Chk1 (Homo sapiens) (UniProt O14757);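 note: mean inhibition of CHEK1, part of the GSK PKIS profiling set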
Sequence (O14757 whole entry): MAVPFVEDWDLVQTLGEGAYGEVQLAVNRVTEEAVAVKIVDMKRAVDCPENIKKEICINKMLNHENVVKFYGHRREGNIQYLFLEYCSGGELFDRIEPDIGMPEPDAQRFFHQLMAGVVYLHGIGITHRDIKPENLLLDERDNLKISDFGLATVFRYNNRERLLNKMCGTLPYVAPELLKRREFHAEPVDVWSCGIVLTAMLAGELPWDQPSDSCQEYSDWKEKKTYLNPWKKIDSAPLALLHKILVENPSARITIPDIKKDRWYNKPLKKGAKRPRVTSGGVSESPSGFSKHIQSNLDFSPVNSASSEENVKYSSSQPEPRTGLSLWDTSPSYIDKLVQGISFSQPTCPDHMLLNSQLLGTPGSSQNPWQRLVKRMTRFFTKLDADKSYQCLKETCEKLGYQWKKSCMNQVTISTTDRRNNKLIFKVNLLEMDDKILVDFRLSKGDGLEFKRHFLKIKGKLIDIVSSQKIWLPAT
Details: at 1 µM
assay.readout: inhibition (%)
Only the number, expressed in %, is required.

Solved cases below.
{"columns": ["compound", "observed.value"],
 "data": [
  ["N#Cc1ccc2c(-c3ccnc(NC4CC4)n3)c(-c3ccc(F)cc3)nn2c1", -0.86],
  ["COc1cc2c(cc1Nc1nc(Nc3cccc(F)c3C(N)=O)c3cc[nH]c3n1)N(C(=O)CN1CCN(C(C)C)CC1)CC2", 4.94],
  ["CCS(=O)(=O)c1ccc(OC)c(Nc2ncc(-c3cccc(F)c3)o2)c1", 12.9],
  ["CCOc1ccc2c(-c3ccnc(Nc4cc(OC)cc(C(F)(F)F)c4)n3)cnn2n1", 1.38],
  ["c1ccc(-c2n[nH]cc2-c2ccnc(-c3ccc(OCCn4ccnc4)cc3)c2)nc1", -4.71]
]}

Bench note: what inhibition did Fc1ccc(Nc2nccc(-c3c(-c4ccc(C(F)(F)F)cc4)nn4ncccc34)n2)cc1F show? 3.73

Try this compound next: O=C(O[C@H]1CN[C@H](C#Cc2cc3ncnc(Nc4ccc5c(ccn5Cc5cc(F)ccc5F)c4)c3s2)C1)N1CCOCC1 -1.69

For CS(=O)(=O)CCNCc1ccoc1-c1ccc2ncnc(Nc3ccc(OCc4ccccc4)cc3)c2c1 then? -2.73

Subsequent entry: OCCCNc1nccc(-c2c(-c3ccc(F)cc3)nn3cc(C(F)(F)F)ccc23)n1 -1.18

Then this compound: O=C1Nc2ccccc2/C1=C1\CCc2cc(O)ccc21 9.92

Moving on to the next compound: CC1=C(C(=O)Nc2ccc3[nH]ncc3c2)C(c2ccc(F)cc2)N=C(c2ccc(C(F)(F)F)nc2)N1 (centres undefined) 3.03

Next compound: NS(=O)(=O)c1cccc(N/C=C2\C(=O)Nc3ccccc32)c1 14.3

Okay, and Cc1nnc(-c2cccc(-c3ccc(C(=O)NCC4CC4)cc3)c2)o1 ? 5.14

Likewise for CNC(=O)c1ncccc1Nc1nc(Nc2cc3c(cc2OC)CCCN3C(=O)CN(C)C)nc2[nH]ccc12 ? 4.54

Next record, please: CC1=C(C(=O)Nc2ccc3[nH]nc(C)c3c2)C(c2ccc(C(F)(F)F)cc2)CC(=O)N1 (centres undefined) 2.75

Request: CCn1c(-c2nonc2N)nc2cncc(C(=O)NCCNC)c21 -0.23

Check O=C(O[C@H]1CN[C@H](C#Cc2cc3ncnc(Nc4ccc(OCc5cccc(F)c5)c(Cl)c4)c3s2)C1)N1CCOCC1 too. -1.17

Again, but for CN1CCC(n2cnc(-c3ccc(F)cc3)c2-c2ccnc(NCCO)n2)CC1 6.89

Entry Cc1cc(O)cc(C)c1/C=C/c1cncc(C(=O)OC(C)(C)C)c1 please 3.47

----------
Molecular target: Tyrosine-protein kinase ZAP-70 (Homo sapiens) (UniProt P43403)
Sequence (whole entry): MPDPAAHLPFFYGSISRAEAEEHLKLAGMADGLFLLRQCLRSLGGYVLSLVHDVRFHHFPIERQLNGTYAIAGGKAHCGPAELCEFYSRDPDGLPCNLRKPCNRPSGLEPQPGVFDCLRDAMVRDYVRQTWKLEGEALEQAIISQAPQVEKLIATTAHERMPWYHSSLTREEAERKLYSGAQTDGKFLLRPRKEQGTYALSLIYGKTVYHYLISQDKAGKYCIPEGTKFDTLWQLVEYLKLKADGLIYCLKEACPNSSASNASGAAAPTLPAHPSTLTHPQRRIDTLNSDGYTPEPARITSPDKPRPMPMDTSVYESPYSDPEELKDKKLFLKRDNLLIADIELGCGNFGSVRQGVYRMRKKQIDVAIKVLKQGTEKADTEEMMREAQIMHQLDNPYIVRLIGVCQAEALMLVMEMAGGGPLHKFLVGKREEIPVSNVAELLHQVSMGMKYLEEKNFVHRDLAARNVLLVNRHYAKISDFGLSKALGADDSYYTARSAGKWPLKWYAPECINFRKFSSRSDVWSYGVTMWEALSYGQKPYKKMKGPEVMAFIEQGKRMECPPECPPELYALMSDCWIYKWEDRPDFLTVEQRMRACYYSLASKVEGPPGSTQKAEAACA
Conditions: at 1 µM
Description: GSK_PKIS: ZAP70 mean inhibition at 1 uM [Nanosyn]
assay.readout: inhibition (%)
Express your answer in %, writing the number without its unit.

Test system Tyrosine-protein kinase ZAP-70 (Homo sapiens) (UniProt P43403); read-out inhibition; what value for COc1ccc(Nc2ncc(-c3ccccc3)o2)cc1OC ? 1.27

Now the same for COC(=O)Nc1nc2ccc(Oc3ccc(NC(=O)Nc4cc(C(F)(F)F)ccc4F)cc3)cc2s1 -0.75

Entry to check: O=C1Nc2ccccc2/C1=C1\CCc2cc(O)ccc21 7.74

Now the compound Cc1c2ccc(N(C)c3ccnc(Nc4cccc(S(N)(=O)=O)c4)n3)cc2nn1C 11.5

Another: NS(=O)(=O)c1cccc(N/C=C2\C(=O)Nc3ccccc32)c1 4.58

Another compound to look at: OCCCNc1nccc(-c2c(-c3ccc(F)cc3)nn3cc(C(F)(F)F)ccc23)n1 -1.3

Lookup CCN1CCC(C(=O)Nc2n[nH]c3nnc(-c4cccc(F)c4F)cc23)CC1 2.19

Next: Cc1ccc(-c2cc3c(NC(=O)C4CC4)ncnc3o2)cc1 3.18

Now this one: Cc1cc(O)cc(C)c1/C=C/c1cncc(C(N)=O)c1 2.46
